- system_under_test: FGFR1 (UniProt P11362)
- Sequence (P11362 whole entry, looked up): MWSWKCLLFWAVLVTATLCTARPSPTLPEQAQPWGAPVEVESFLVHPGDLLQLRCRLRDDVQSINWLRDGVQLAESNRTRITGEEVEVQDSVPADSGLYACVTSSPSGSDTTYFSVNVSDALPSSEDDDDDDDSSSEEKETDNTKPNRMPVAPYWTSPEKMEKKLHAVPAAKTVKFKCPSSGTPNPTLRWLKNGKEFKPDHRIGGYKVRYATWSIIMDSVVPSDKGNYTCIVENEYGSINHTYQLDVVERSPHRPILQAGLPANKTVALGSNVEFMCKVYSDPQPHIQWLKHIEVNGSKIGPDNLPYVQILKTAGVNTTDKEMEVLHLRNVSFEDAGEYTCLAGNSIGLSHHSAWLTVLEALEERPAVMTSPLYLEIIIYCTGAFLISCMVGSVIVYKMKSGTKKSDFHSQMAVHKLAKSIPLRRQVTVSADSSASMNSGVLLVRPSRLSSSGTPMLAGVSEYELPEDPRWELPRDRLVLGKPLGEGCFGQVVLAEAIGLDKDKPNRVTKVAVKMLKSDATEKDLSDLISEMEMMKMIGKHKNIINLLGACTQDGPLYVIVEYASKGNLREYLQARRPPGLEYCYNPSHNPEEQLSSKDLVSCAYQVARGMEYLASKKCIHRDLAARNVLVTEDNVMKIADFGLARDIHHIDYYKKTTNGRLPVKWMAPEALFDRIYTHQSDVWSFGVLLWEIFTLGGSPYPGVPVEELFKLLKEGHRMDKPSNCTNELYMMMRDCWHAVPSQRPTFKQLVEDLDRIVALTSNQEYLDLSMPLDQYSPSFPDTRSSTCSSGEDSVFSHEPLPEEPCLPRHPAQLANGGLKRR
- experiment_description: phosphorylation enrichment, bacterial display (enrichment ratio); higher = better substrate or ligand; peptides without Tyr show the background;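 further: 11-residue human phosphosite peptides and single-mutation variants displayed on the E. coli surface, counted by deep sequencing, each peptide's frequency after selection divided by its frequency in the unselected input library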;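 further: frequency after pTyr selection over input frequency; kinase dosed for 20-30% of maximal phosphorylation in three min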
Label -1 if phosphorylation enrichment falls below 0.5; label 1 in every other case.

Qu. Quick check: does DSRRDYVSQFE [APOA1_Y53_G50R] have phosphorylation enrichment greater than or equal to 0.5?
Ans. 1

Qu. State whether the measured phosphorylation enrichment reaches 0.5, counting equality as reaching it, for YSPCDYQPCLA [TNS1_Y798_Y796C]
Ans. 1

Qu. # check: phosphorylation enrichment of RENGPYYTSYP [GDAP2_Y487] is greater than or equal to 0.5
Ans. 1

Qu. Reported phosphorylation enrichment at or above 0.5? LNFNEYFRDLN [HPRT1_Y198_D194N_YF]
Ans. 1

Qu. Decide: phosphorylation enrichment of RAMPVYKKAEH [TP63_Y231] >= 0.5?
Ans. -1

Qu. Answer whether phosphorylation enrichment of AQQPIYIRVEG [NLRP7_Y318_V319I] is greater than or equal to 0.5.
Ans. 1

Qu. phosphorylation enrichment >= 0.5 for YGMQLYQNYMH [GRB14_Y347] ?
Ans. 1

Qu. Reported phosphorylation enrichment at or above 0.5? MFNPYYGLFEY [NEDD4L_Y680]
Ans. 1

Qu. I'd appreciate it if you could say whether NTEGGYCCICA [CRELD1_Y328_R329C] has phosphorylation enrichment at least equal to 0.5.
Ans. 1

Qu. Decide: is the reported value of phosphorylation enrichment for CKLVDYDSARH [BIN1_Y150_R145C] equal to or greater than 0.5?
Ans. -1

Qu. Given TKDTFHKQPMF [GBA_Y451_Y451H] , state whether its phosphorylation enrichment is at least 0.5.
Ans. -1

Qu. Could you verify whether the entry KQMEQYMSFHK [HCN1_Y417_V414M] shows phosphorylation enrichment of no less than 0.5?
Ans. -1

Qu. Does the sequence QYRFIYMAVQH [PTPN11_Y515] have recorded phosphorylation enrichment that is 0.5 or more?
Ans. 1

Qu. Is reported phosphorylation enrichment greater than or equal to 0.5 here: RPFRPYIIRGM [LRP5_Y1531_YF]
Ans. 1

Qu. Does ERCAQYKKDGA [ALDOA_Y138] have a reported phosphorylation enrichment of at least 0.5?
Ans. -1

Qu. Check if phosphorylation enrichment >= 0.5 (inclusive). Item: RAADYYSQQMA [GBP6_Y334]
Ans. 1

Qu. # bool: phosphorylation enrichment of KLIETCFSKNY [PLP1_Y50_Y50C] >= 0.5
Ans. -1

Qu. Exam item: decide whether the reported phosphorylation enrichment for YRTPGYREVVI [TNS2_Y673_A670T] is at least 0.5.
Ans. -1

Qu. State whether the measured phosphorylation enrichment reaches 0.5, counting equality as reaching it, for AQPHTYEEPGR [EPHA8_Y616_E612Q]
Ans. -1

Qu. Determine whether this sequence has phosphorylation enrichment no lower than 0.5: KGPGEYVNIEF [IRS1_Y896_S892G]
Ans. 1

Qu. Does phosphorylation enrichment meet or surpass 0.5 for YHLLPYTVRAM [PARS2_Y93] ?
Ans. 1

Qu. Answer whether phosphorylation enrichment of RLPINYTTRRI [LAMA2_Y2894_G2889R] is greater than or equal to 0.5.
Ans. 1

Qu. Reported phosphorylation enrichment reaches at least 0.5 for KNSFKYFMSDD [ATRX_Y203_C200S_YF] ?
Ans. -1

Qu. # bool: phosphorylation enrichment of RLLRGYNQSAY [HLA-C_Y137_D138N] >= 0.5
Ans. -1

Qu. Does the reported phosphorylation enrichment for RLDPVYFVAPA [LAMC2_Y250] fall at or above the 0.5 mark?
Ans. 1

Qu. Could you please find out whether EWQQTYTYDSG [JUP_Y20] has phosphorylation enrichment that meets 0.5 or exceeds it?
Ans. 1
